Target: Mast/stem cell growth factor receptor Kit (Homo sapiens)
Details: at 1 µM
compounds and their reported inhibition

Take a look at these entries with their results.
# input smiles, assayed target, inhibition
measured = [
    ("NS(=O)(=O)c1cccc(Nc2cc(-c3ccc(F)cc3)n[nH]2)c1", "Mast/stem cell growth factor receptor Kit (Homo sapiens)", "84.5%"),
    ("COC(=O)c1cncc(/C=C/c2c(C)cc(O)cc2C)c1", "Mast/stem cell growth factor receptor Kit (Homo sapiens)", "83.5%"),
    ("O=C(Nc1ccc(Oc2ccc3[nH]c(NC(=O)c4ccco4)nc3c2)cc1)Nc1cc(C(F)(F)F)ccc1F", "Mast/stem cell growth factor receptor Kit (Homo sapiens)", "92.1%"),
    ("COc1cccc(-n2ncc3c(N/N=C/c4ccc(C)cc4)ncnc32)c1", "Mast/stem cell growth factor receptor Kit (Homo sapiens)", "10.6%"),
    ("C[C@@H](Oc1cc(-n2cnc3ccc(OCC4CCN(C)CC4)cc32)sc1C(N)=O)c1ccccc1C(F)(F)F", "Mast/stem cell growth factor receptor Kit (Homo sapiens)", "0.09%"),
]

# input Provide measured inhibition value, entry: O=C1Nc2ccccc2/C1=C/Nc1ccc2[nH]c(=O)[nH]c2c1
# output 84.4%

# input Provide measured inhibition value, entry: CCS(=O)(=O)c1ccc(OC)c(Nc2ncc(-c3cccc(OC)c3)o2)c1
# output 97%

# input Give reported inhibition value for [O-][S+]1CCN(Cc2ccc(-c3ccc4ncnc(Nc5ccc(OCc6ccccc6)c(Cl)c5)c4c3)o2)CC1
# output 0.65%

----------
Biological target: Mast/stem cell growth factor receptor Kit (Homo sapiens)
Settings: at 0.1 µM
endpoint: inhibition (%)
Quick reminder: number only, in %, skip the unit.

# input Answer with the recorded inhibition of CN1CCN(C(=O)c2ccc(NC(=O)Nc3ccc(N(C)c4ccnc(Nc5ccc(CS(C)(=O)=O)cc5)n4)cc3)cc2)CC1 only.
# output 65.6

# input # return recorded inhibition for entry Nc1nccc(C#Cc2cncnc2Nc2ccc(OCc3cccc(F)c3)c(Cl)c2)n1
# output 3.65

----------
Target: Glycogen synthase kinase-3 beta (Homo sapiens) (UniProt P49841);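 further: values are mean percent inhibition of GSK3B activity, from the GSK Published Kinase Inhibitor Set (PKIS) screening dataset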
Sequence (P49841 whole entry, looked up): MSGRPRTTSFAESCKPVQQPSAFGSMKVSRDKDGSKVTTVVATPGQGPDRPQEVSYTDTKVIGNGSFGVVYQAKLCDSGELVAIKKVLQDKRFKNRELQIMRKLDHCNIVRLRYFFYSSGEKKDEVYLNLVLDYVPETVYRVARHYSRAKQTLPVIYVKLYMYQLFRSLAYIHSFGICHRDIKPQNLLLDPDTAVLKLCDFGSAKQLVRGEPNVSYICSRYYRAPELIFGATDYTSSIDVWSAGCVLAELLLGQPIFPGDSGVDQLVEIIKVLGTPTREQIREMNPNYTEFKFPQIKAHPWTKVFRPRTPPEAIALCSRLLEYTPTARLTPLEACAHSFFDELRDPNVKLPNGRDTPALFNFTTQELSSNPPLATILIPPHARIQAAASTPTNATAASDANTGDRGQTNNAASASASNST
Conditions: at 0.1 µM
# maps each entry to its inhibition
Quick note: give the figure in %, leave out the unit.

Please review the entries below; each comes with its answer.
# input smiles, inhibition, %
rows = [
    ("CC(C)c1ccc(Nc2nccc(-c3cnn4ncccc34)n2)cc1", 31.3),
    ("NS(=O)(=O)c1ccc(N/N=C2\\C(=O)Nc3ccc(Cl)cc32)cc1", 13.5),
    ("Nc1nccc(C#Cc2cncnc2Nc2ccc(OCc3cccc(F)c3)c(Cl)c2)n1", 2.94),
    ("COc1ccc2ncnc(Nc3ccc(OCc4ccccc4)cc3)c2c1", 1.06),
]

# input State its inhibition: N#Cc1c(NC(=O)c2ccccc2F)sc2c1CCCC2
# output -0.5

# input Given CN(C)c1cc2c(Nc3ccc4c(cnn4Cc4ccccc4)c3)ncnc2cn1 , respond with its inhibition.
# output 1.16

# input Tell us which inhibition value is on record for Cc1nc(-c2ccccc2)n2nc(NCCCN3CCOCC3)ncc12
# output 4.78

# input Entry CCS(=O)(=O)c1ccc(OC)c(Nc2nccc(N(C)c3ccc4c(C)n[nH]c4c3)n2)c1 needs its inhibition filled in; supply it.
# output 1.45

# input Tell me inhibition reported for Cc1ccc(NC(=O)CC2CC2)cc1-c1ccc(C(=O)NCC2CC2)cc1
# output 1.75

# input Look up inhibition of C[C@@H](Oc1cc(-n2cnc3ccc(OC[C@@H](O)CO)cc32)sc1C(N)=O)c1ccccc1Cl and report it.
# output 0.42

----------
Molecular target: RAF proto-oncogene serine/threonine-protein kinase (Homo sapiens);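 further: values are the mean percent inhibition of CRAF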
Details: at 1 µM
Listed below: inhibition values for each entry.
The reply should contain only the number, in %.

Below: 2 compounds and their reported inhibition.
# input smiles, unit string, inhibition
rows = [
    ("NC(=O)c1cccc(Nc2nccc(Nc3cccc(F)c3)n2)c1", "%", -1.43),
    ("O=C1Nc2ccccc2/C1=C/Nc1ccc2[nH]c(=O)[nH]c2c1", "%", -0.47),
]

# input For the compound Cc1cc(O)cc(C)c1/C=C/c1cncc(C(=O)N(C)C)c1 , give its measured inhibition value.
# output -5.4

# input Retrieve inhibition measured for NC(=O)c1sc(-n2cnc3ccccc32)cc1OCc1ccccc1Br and print it.
# output -0.55

# input Report measured inhibition; entry is NS(=O)(=O)c1ccc(Nc2cc(-c3cccc(O)c3)n[nH]2)cc1
# output -1.78

# input For the compound CS(=O)(=O)Nc1cccc(-c2ccc3c(NC(=O)C4CC4)n[nH]c3c2)c1 , give its measured inhibition value.
# output 16.5

# input Give a short answer stating reported inhibition for O=S(=O)(CCOCc1ccc(-c2ccc3ncnc(Nc4ccc(OCc5cccc(F)c5)c(Cl)c4)c3c2)o1)c1ccccc1 .
# output -1.29

# input Provide measured inhibition value, entry: CCn1c(-c2nonc2N)nc2c(C#CC(C)(C)O)nc(OCCNC)cc21
# output 0.54

# input Note down inhibition recorded for COc1cccc(-n2nc(C)c3c(N/N=C(\C)c4ccncc4)ncnc32)c1
# output -2.83

# input // Input: CCS(=O)(=O)c1ccc(OC)c(Nc2nccc(N(C)c3ccc4c(C)n[nH]c4c3)n2)c1 . Output its inhibition only.
# output 3.08

# input Retrieve inhibition measured for N#Cc1cccc(Nc2nccc(-c3cnn4ncccc34)n2)c1 and print it.
# output 0.47

# input Give inhibition for the following compound: C[C@@H](Oc1cc(-n2cnc3ccc(OCC4CCN(C)CC4)cc32)sc1C(N)=O)c1ccccc1C(F)(F)F
# output 1.99

----------
Target: Phosphorylase b kinase gamma catalytic chain, liver/testis isoform (Homo sapiens);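 further: reported value is the mean inhibition of PHKG2 from the GSK_PKIS screening set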
Conditions: at 1 µM
Examples of molecules with documented inhibition follow.
Answer with a number only, understood to be in %.

# input smiles, unit string, observed measurement
measured = [
    ("C[C@@H](Oc1cc(-n2cnc3ccc(OCC4CCN(C)CC4)cc32)sc1C(N)=O)c1ccccc1C(F)(F)F", "%", 10.8),
    ("Cc1cc(-c2ccccn2)cc(C)c1/C=C/c1cncc(-c2nn[nH]n2)c1", "%", 5.59),
    ("Nc1nccc(C#Cc2cncnc2Nc2ccc(OCc3cccc(F)c3)c(Cl)c2)n1", "%", 2.05),
]

# input Using the record for NC(=O)c1sc(-n2cnc3ccccc32)cc1OCc1ccccc1Br , state its measured inhibition.
# output 5.93

# input Look up inhibition of Oc1cccc(-c2nc(-c3ccccc3)[nH]c2-c2ccncc2)c1 and report it.
# output 4.95

# input Query inhibition for COc1cc2ncn(-c3cc(OCc4ccccc4S(C)(=O)=O)c(C#N)s3)c2cc1OC
# output 10.9

# input Give the value of inhibition reported for the following: Cc1ccc(Nc2ccnc(Nc3cccc(C(N)=O)c3)n2)cc1O
# output 6.26

----------
Biological target: Ribosomal protein S6 kinase alpha-1 (Homo sapiens) (UniProt Q15418);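 further: values are mean percent inhibition of RSK1 measured in the GSK PKIS kinase inhibitor set screen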
Sequence (Q15418 whole entry): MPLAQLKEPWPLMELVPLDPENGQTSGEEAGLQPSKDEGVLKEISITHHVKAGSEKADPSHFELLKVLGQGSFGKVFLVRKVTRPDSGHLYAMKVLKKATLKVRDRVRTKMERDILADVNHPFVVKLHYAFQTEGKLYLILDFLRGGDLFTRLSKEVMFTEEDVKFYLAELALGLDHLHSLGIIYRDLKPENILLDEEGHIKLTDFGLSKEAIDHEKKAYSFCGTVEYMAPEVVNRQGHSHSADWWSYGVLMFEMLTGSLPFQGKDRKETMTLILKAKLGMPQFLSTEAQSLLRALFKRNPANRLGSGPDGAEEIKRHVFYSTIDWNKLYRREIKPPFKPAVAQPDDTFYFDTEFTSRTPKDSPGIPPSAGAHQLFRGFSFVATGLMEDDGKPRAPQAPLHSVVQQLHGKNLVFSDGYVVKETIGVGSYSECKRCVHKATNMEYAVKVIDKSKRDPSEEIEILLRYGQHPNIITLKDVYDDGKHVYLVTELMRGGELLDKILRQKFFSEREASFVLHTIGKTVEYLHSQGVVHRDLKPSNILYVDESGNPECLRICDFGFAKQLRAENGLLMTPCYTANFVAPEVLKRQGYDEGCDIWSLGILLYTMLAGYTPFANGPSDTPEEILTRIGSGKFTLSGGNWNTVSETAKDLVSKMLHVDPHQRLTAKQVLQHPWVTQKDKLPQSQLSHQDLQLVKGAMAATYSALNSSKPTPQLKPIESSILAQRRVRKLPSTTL
Settings: at 0.1 µM
Each item that follows carries a reported inhibition.
Write the numeric value and append its unit.

# input smiles, inhibition
data = [
    ("Oc1cccc(-c2nc(-c3ccccc3)[nH]c2-c2ccncc2)c1", "2.58%"),
    ("CCn1c(-c2nonc2N)nc2c(C#CC(C)(C)O)nc(OCCNC)cc21", "0.22%"),
    ("COc1cccc(-n2ncc3c(N/N=C/c4ccc(C)cc4)ncnc32)c1", "2.5%"),
    ("COC(=O)c1cncc(/C=C/c2c(C)cc(O)cc2C)c1", "2.26%"),
]

Now turn to the next compound.
# input Quote inhibition reported for CS(=O)(=O)Nc1cccc(-c2ccc3c(NC(=O)C4CC4)n[nH]c3c2)c1 please.
# output -0.15%

----------
Target: Hepatocyte growth factor receptor (Homo sapiens) (UniProt P08581);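 further: each value is an averaged inhibition figure for MET, taken as the mean across measurements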
Sequence (P08581 whole entry): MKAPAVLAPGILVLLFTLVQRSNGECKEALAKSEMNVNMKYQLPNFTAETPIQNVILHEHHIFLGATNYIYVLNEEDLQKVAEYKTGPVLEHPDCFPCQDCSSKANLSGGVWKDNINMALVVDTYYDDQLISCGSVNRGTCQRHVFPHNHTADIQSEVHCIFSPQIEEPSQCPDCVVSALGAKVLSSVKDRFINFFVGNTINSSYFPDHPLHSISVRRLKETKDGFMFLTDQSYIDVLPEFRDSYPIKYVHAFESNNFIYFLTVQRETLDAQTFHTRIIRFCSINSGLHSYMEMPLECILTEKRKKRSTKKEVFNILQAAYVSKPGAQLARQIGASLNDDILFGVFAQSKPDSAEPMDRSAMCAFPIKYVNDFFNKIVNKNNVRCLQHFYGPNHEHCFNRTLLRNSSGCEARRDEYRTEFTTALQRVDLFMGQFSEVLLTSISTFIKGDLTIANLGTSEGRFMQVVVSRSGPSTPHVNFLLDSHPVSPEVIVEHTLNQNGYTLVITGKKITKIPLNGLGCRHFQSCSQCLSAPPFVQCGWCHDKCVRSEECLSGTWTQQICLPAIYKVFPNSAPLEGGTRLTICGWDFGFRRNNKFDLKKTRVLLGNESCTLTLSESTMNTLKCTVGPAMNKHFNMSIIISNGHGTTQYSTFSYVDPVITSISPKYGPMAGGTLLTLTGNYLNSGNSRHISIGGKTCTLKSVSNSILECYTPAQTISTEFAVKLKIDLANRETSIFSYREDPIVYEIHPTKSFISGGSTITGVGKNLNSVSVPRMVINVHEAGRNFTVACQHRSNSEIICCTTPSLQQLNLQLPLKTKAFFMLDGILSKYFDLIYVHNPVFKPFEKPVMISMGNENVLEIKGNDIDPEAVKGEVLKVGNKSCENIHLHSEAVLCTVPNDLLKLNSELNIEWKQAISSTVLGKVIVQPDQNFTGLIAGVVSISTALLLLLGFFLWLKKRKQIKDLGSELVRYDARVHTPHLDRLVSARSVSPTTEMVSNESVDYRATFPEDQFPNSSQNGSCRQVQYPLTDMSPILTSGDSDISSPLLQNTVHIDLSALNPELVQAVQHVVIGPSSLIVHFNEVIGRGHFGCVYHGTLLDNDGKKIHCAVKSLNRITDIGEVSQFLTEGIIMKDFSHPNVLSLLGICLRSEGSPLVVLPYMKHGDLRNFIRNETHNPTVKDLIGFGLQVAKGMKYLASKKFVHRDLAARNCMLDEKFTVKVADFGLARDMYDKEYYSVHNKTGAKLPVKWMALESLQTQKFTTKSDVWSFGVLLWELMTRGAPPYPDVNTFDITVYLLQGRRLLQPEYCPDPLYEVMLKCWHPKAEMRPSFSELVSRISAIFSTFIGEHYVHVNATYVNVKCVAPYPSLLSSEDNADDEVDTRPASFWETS
Conditions: at 1 µM
Hi, to clarify the labels: satisfied covers inhibition from 8% upward, not satisfied covers anything below 8%.

# input smiles, assayed target, cat
measured = [
    ("Nc1ccc(C#Cc2cncnc2Nc2ccc(OCc3cccc(F)c3)c(Cl)c2)cc1", "Hepatocyte growth factor receptor (Homo sapiens) (UniProt P08581)", "not satisfied"),
]

# input Test whether the compound Nc1nccc(C#Cc2cncnc2Nc2ccc(OCc3cccc(F)c3)c(Cl)c2)n1 records inhibition of 8% or higher.
# output satisfied

# input Hi team, for COC(=O)c1cncc(/C=C/c2c(C)cc(O)cc2C)c1 , is the recorded inhibition at or above 8%?
# output satisfied

# input Decide: is the reported value of inhibition for Cc1ccc2c(-c3ccnc(Nc4ccc5c(c4)OCCO5)n3)c(-c3ccc(C(F)(F)F)cc3)nn2n1 equal to or greater than 8%?
# output not satisfied

# input Say whether Cc1cc(O)cc(C)c1/C=C/c1cncc(C(=O)N(C)C)c1 shows inhibition of 8% or more.
# output satisfied

----------
Target: Serine/threonine-protein kinase Chk1 (Homo sapiens) (UniProt O14757)
Sequence (whole entry): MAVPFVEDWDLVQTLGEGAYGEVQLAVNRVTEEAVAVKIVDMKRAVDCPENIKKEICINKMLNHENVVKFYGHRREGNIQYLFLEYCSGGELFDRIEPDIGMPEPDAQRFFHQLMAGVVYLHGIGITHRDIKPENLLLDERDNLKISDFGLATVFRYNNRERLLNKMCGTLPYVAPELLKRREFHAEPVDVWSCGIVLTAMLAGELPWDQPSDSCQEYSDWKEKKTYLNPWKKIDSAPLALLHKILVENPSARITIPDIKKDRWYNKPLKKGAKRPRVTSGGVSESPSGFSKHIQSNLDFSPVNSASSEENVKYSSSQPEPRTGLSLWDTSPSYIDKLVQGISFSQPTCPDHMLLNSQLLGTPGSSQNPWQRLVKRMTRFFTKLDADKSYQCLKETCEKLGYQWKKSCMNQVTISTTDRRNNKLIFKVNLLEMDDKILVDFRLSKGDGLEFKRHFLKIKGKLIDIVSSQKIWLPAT
Settings: at 1 µM
endpoint: inhibition (%)
Dear colleague, please return just the value in %, with no unit written.

# input smiles, unit string, observed measurement
records = [
    ("O=C1Nc2ccccc2/C1=C/Nc1ccc2[nH]c(=O)[nH]c2c1", "%", 15.7),
    ("COc1cc2ncnc(Nc3ccc(C)c(O)c3)c2cc1OC", "%", 4),
    ("COc1ccc(-c2nn3ncccc3c2-c2ccnc(Nc3cccc(C(F)(F)F)c3)n2)cc1", "%", -3.09),
    ("CN(C)c1cc2c(Nc3ccc4c(cnn4Cc4ccccc4)c3)ncnc2cn1", "%", 5.16),
]

Then this molecule:
# input Give inhibition for Cc1cc(-c2ccccn2)cc(C)c1/C=C/c1cncc(-c2nn[nH]n2)c1 tested on Serine/threonine-protein kinase Chk1 (Homo sapiens) (UniProt O14757).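 Further: mean inhibition of CHEK1, part of the GSK PKIS profiling set.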
# output 4.81
